# Assay System: Proteasome Macropain subunit MB1 (Homo sapiens, UniProt P28074)
# Sequence (P28074 whole entry): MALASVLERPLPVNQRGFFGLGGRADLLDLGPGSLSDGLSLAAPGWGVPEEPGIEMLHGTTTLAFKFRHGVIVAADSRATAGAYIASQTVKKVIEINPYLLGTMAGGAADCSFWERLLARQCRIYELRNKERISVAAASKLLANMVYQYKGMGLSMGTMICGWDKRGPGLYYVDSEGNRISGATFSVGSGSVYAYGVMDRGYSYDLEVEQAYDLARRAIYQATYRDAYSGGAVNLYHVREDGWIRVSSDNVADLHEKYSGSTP
# Test Details: Inhibition of chymotrypsin-like activity of human 20S proteasome pretreated for 15 mins followed by Suc-Leu-Leu-Val-Tyr-AMC substrate addition by fluorescence assay
pIC50: −log10 of the molar value.
Kindly return TRUE if reported pIC50 is no lower than 8; return FALSE if it is lower.

Please review the following examples before continuing.
In [3]: df
Out[3]:
                                 mol_smiles  answer_label
0  CC(C)(C)CNC(=O)C[C@H](NC(=O)N1CCC(C(=O)Nc2cnccn2)CC1)C(=O)N[C@@H](Cc1ccccc1)C(=O)NCc1ccccc1Cl         FALSE
1  CC(C)(C)CNC(=O)C[C@H](NC(=O)N1CCC(NC(=O)c2cnccn2)CC1)C(=O)N[C@@H](CCc1ccccc1)C(=O)NCc1ccccc1Cl          TRUE
2  CC(C)(C)CNC(=O)C[C@H](NC(=O)N1CCC(C(=O)Nc2nccs2)CC1)C(=O)N[C@@H](CCc1ccccc1)C(=O)NCc1ccccc1Cl          TRUE

Next molecule, please.
Data request: Given CC(C)(C)CNC(=O)C[C@H](NC(=O)N1CCC(C(=O)NCc2nccs2)CC1)C(=O)N[C@@H](CCc1ccccc1)C(=O)NCc1ccccc1Cl , state whether its pIC50 is at least 8.
Data returned: TRUE
